Data provenance is PubChem BioAssay AID248.

# Test system: L1210 leukemia ip in BDF1 mice, survival T/C
# Test Name: NCI In Vivo Anticancer Drug Screen. Data for tumor model L1210 Leukemia (intraperitoneal) in B6D2F1 (BDF1) mice
# Conditions: endpoint: mean survival time; dose: 50.0 mg/kg/injection; schedule: Q01DX001 (ip); vehicle: saline; higher = longer survival
# Protocol: The antitumor activity of compounds was measured in mice bearing transplantable tumors. Survival or tumor size were measured and the results are expressed as the measurement made in the treated group (T) divided by the measurement made in the vehicle treated control group (C). The tumor model used in this assay is L1210 Leukemia (intraperitoneal) in B6D2F1 (BDF1) mice
Inconclusive results and toxic doses are left out.
Item-by-item account of T/C

{"Compound": "Cc1cccc(C)c1C1=CCCCC1", "T/C": "108 % of control"}
{"Compound": "COc1ccc(N=CN(C)C)cc1", "T/C": "100 % of control"}
{"Compound": "CC(C)=CC[P+](c1ccccc1)(c1ccccc1)c1ccccc1", "T/C": "90 % of control"}
{"Compound": "CC1(C)C(C)(C)C12C=CC=C2", "T/C": "102 % of control"}
{"Compound": "CC(O)C(O)C(O)C(O)C(c1ccc(Cl)cc1)c1ccc(Cl)cc1 (stereo not drawn)", "T/C": "104 % of control"}
{"Compound": "CCCC[As](=O)(O)C(C)C", "T/C": "103 % of control"}
{"Compound": "CC(C)CC1NC(C)(C)N(CC(=O)O)C1=O (stereo not drawn)", "T/C": "88 % of control"}
{"Compound": "O=C1NC(=O)C(c2cccc(Cl)c2)N1 (stereo not drawn)", "T/C": "106 % of control"}

* * *

# Test system: L1210 leukemia ip in BDF1 mice, survival T/C
# Test Name: NCI In Vivo Anticancer Drug Screen. Data for tumor model L1210 Leukemia (intraperitoneal) in B6D2F1 (BDF1) mice
# Conditions: endpoint: mean survival time; dose: 200.0 mg/kg/injection; schedule: Q01DX009 (ip); vehicle: saline with Tween-80; higher = longer survival
Toxic doses and inconclusive results are not listed. Peptide text beside a SMILES is read from it. * marks the point of attachment. Boc = CC(C)(C)OC(=O)*; Bn = c1ccc(C*)cc1
Reported Property: T/C

{"Compound": "O=C(NC1CCOC1=O)OCc1ccccc1 (configuration not stated)", "Measured Value": "95 % of control"}
{"Compound": "CCOC(=O)C(Cc1c[nH]c2ccccc12)(NC(C)=O)C(=O)OCC", "Measured Value": "90 % of control"}
{"Compound": "Cc1ccc(CCCCCCCCCCCC(=O)O)cc1", "Measured Value": "93 % of control"}
{"Compound": "COC(=O)CNC(=O)C(Cc1ccc(OCc2ccccc2)cc1)NC(=O)C(CO)NC(=O)OC(C)(C)C (stereo not drawn) (Boc-Ser-Tyr(Bn)-Gly-OMe; configuration not given here)", "Measured Value": "98 % of control"}
{"Compound": "Cc1ccc(S(=O)(=O)CO)cc1", "Measured Value": "97 % of control"}
{"Compound": "COc1ccc(OC(=O)CCCl)cc1", "Measured Value": "105 % of control"}
{"Compound": "CCOC(=O)c1cc(CC)sc1N", "Measured Value": "86 % of control"}
{"Compound": "CC1CCc2cc3ccccc3nc21 (configuration not stated)", "Measured Value": "112 % of control"}
{"Compound": "C=CN1C(=O)N(C=C)C(C)(CC(C)C)C1=O (configuration not stated)", "Measured Value": "103 % of control"}
{"Compound": "Cc1cc2c3ccccc3nc(C(F)(F)F)n2n1", "Measured Value": "103 % of control"}
{"Compound": "Cc1cc(C)cc(CCc2cc(C)cc(C)c2)c1", "Measured Value": "95 % of control"}
{"Compound": "CCOC(=O)c1c[nH]c(=O)c([N+](=O)[O-])c1O", "Measured Value": "109 % of control"}
